biological target: BRM (Homo sapiens, UniProt P51531); experiment: ATPase catalytic activity assay (ADP-Glo), BRM; settings: 30 nM BRM, 400 μM ATP
Sequence (P51531 whole entry): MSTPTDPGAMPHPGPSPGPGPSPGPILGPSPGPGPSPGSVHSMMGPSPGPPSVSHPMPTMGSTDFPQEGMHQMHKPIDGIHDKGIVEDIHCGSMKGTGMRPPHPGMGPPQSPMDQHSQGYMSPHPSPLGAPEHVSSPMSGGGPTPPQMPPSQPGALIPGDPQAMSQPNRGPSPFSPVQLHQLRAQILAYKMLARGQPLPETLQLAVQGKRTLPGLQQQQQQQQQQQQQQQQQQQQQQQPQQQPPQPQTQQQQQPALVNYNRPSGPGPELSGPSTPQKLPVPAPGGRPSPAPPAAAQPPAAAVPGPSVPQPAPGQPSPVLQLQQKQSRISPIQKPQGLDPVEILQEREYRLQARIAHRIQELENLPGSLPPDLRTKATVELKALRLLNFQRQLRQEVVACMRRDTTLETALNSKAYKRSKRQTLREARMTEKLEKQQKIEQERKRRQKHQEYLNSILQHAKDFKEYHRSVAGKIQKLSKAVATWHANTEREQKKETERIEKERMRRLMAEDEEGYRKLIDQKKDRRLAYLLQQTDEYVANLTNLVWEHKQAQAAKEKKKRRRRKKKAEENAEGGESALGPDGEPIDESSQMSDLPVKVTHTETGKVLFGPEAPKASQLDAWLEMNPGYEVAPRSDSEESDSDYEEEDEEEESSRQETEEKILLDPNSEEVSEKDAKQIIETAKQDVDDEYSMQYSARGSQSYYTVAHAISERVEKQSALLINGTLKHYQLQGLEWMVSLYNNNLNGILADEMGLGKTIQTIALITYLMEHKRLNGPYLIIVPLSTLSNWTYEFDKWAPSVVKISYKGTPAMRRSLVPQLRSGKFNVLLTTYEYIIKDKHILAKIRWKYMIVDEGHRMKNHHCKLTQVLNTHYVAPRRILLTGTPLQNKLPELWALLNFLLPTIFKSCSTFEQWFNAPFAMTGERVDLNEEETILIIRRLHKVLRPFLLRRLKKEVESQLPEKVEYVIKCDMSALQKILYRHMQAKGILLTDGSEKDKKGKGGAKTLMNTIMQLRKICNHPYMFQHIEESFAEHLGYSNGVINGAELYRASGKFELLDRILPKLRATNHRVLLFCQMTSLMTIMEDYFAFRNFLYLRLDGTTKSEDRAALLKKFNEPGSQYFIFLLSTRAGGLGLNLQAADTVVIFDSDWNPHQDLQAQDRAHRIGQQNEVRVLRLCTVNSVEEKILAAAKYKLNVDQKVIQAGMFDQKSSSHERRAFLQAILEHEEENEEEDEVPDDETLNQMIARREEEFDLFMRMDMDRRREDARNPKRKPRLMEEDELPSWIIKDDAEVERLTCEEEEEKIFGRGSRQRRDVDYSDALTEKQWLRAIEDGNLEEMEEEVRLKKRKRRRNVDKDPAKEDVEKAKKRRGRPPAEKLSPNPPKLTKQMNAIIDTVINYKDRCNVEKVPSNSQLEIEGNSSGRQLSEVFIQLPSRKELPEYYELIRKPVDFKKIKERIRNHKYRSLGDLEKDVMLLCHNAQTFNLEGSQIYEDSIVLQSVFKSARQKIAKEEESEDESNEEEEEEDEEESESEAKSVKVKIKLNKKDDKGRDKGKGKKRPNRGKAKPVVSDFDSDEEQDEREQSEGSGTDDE
# maps each entry to its BRM Max % Inhibition
Numeric answer only, unit % assumed.

Lookup: Please tell me: BRM Max % Inhibition of Cn1ncc2cc(-c3ccc4cnc(CNC(=O)c5ccc6c(c5)[C@](C)(C#N)COC6)cc4n3)ccc21 [Compound 105] , system BRM (Homo sapiens, UniProt P51531)?
Found: 98

Lookup: Now consider O=C(NCc1cc(C#Cc2ccccc2)ccn1)c1ccc2c(c1)[C@@](F)(C(F)F)COC2 [Compound 47] .
Found: 90

Lookup: Moving on to COC(=O)N1CCCC(C#Cc2ccnc(CNC(=O)c3ccc4c(c3)[C@](C)(C#N)COC4)c2)C1 (stereo partly drawn) [Compound 5]
Found: 64

Lookup: Next up: C[C@@]1(C#N)COCc2ncc(C(=O)NCc3cc4nc(-c5ccccc5)ccc4cn3)cc21 [Compound 122]
Found: 94

Lookup: Also, [2H]C1([2H])OCc2ncc(C(=O)NCc3cc4nc(-c5cncc(C6CC6)n5)ccc4cn3)cc2[C@]1(C)F [Compound 222] please.
Found: 98

Lookup: Same lookup for Cc1nn(-c2ccc3cnc(CNC(=O)c4ccc5c(c4)[C@](C)(C#N)COC5)cc3n2)cc1F [Compound 433] , please.
Found: 96

Lookup: Check COc1cnccc1-c1ccc2cnc(CNC(=O)c3ccc4c(c3)[C@](C)(C#N)COC4)cc2n1 [Compound 507] too.
Found: 97

Lookup: Okay, and C[C@@]1(C#N)COCc2ccc(C(=O)NCc3cc(OCc4ccc(C#N)cc4)ccn3)cc21 [Compound 64] ?
Found: 87

Lookup: Same lookup for C[C@@]1(C#N)CCNc2ccc(C(=O)NCc3cc4nc(-c5ccccc5)ccc4cn3)cc21 [Compound 116] , please.
Found: 76

Lookup: And what about the compound Cn1cc(-c2nc3cc(CNC(=O)c4ccc5c(c4)[C@](C)(C#N)COC5)ncc3s2)cn1 [Compound 289] ?
Found: 90

Lookup: Another: C[C@@]1(F)COCc2ccc(C(=O)NCc3cc4nc(-c5cccc(C6(O)CC(F)(F)C6)n5)ccc4cn3)cc21 [Compound 169]
Found: 98

Lookup: Field entry: CN1C[C@@](C)(C#N)c2cc(C(=O)NCc3cc4nc(-c5ccccc5)ccc4cn3)ccc21 [Compound 96]
Found: 84

----------
Entries annotated with measured IC50
target: BRM (Homo sapiens); assay: ATPase catalytic activity assay (ADP-Glo), BRM; settings: BRM ATPase: IC50 (uM), 30 nM BRM, 400 μM ATP

Lookup: Which IC50 value is on record for CN1C[C@@](C)(C#N)c2cc(C(=O)NCc3cc4nc(-c5ccccc5)ccc4cn3)ccc21 ?
Found: > 1 µM

Lookup: # repeat for C[C@@]1(C#N)COCc2ccc(C(=O)NCc3cc4nc(-c5ccccc5)ccc4cn3)cc21 [Compound 97]
Found: 0.1 to 0.5 µM

Lookup: And the next one, CNC(=O)c1cc(-c2ccc3cnc(CNC(=O)c4ccc5c(c4)[C@](C)(C#N)COC5)cc3n2)ccc1F ?
Found: < 0.1 µM

Lookup: Follow-up item: C[C@@]1(F)COCc2ccc(C(=O)NCc3cc4nc(-c5cccc(N6CCCC6=O)n5)ccc4nn3)cc21
Found: < 0.1 µM

Lookup: Okay, and COC(=O)N1CCCC(C#Cc2ccnc(CNC(=O)c3ccc4c(c3)[C@](C)(C#N)COC4)c2)C1 (stereo partly shown) ?
Found: > 1 µM

Lookup: Now this one: C[C@@]1(F)COCc2ccc(C(=O)NCc3cc4nc(-c5ccccc5)ccc4cn3)cc21
Found: 0.1 to 0.5 µM

Lookup: Consider next the compound C[C@@]1(C#N)COCc2ccc(C(=O)NCc3cc4nc(-c5cnn(-c6cccnc6)c5)ccc4cn3)cc21 in the same way.
Found: 0.1 to 0.5 µM

----------
molecular target: UniProt:P51532; experiment: ATPase catalytic activity assay (ADP-Glo), BRG-1
# reported IC50; entries follow

Solved cases below.
- Cn1cc2c(n1)CN(c1ccc3cnc(CNC(=O)c4ccc5c(c4)[C@](C)(C#N)COC5)cc3n1)CC2: 500 to 1000 nM
- Cn1nccc(-c2ccc3cnc(CNC(=O)c4ccc5c(c4)[C@](C)(F)COC5)cc3n2)c1=O: > 1000 nM
- Cc1nccc(-c2ccc3cnc(CNC(=O)c4ccc5c(c4)[C@](C)(C#N)COC5)cc3n2)n1: 500 to 1000 nM

Moving on to the next compound.
Lookup: # get_value(readout='IC50', item= C[C@@]1(C#N)COCc2ccc(C(=O)NCc3cc4nc(-c5ccnc(N6CCC6)n5)sc4cn3)cc21 )
Found: 500 to 1000 nM

----------
molecular target: BRM (Homo sapiens); experiment: ATPase catalytic activity assay (ADP-Glo), BRM; settings: BRM ATPase: IC50 (uM), 30 nM BRM, 400 μM ATP
assayMetric: IC50

Lookup: Data request, read-out IC50, for C[C@@]1(F)COCc2ccc(C(=O)NCc3cc4nc(-c5ccnc(N6CCC6)c5F)cnc4cn3)cc21
Found: < 0.1 µM

Lookup: Also C[C@@]1(C#N)COCc2ccc(C(=O)NCc3cc([C@H]4C[C@@H](c5ccccc5)C4)ccn3)cc21 , if possible.
Found: 0.1 to 0.5 µM

Lookup: Try this compound too: O=C(NCc1cc2nc(-c3cncc(N4CCC4)n3)ccc2cn1)c1cc(F)c2c(c1)[C@](F)(C(F)F)COC2
Found: < 0.1 µM

Lookup: Proceed to C[C@@]1(C#N)COCc2ncc(C(=O)NCc3cc4nc(-c5cccc(C6CC6)c5)ccc4nn3)cc21
Found: 0.1 to 0.5 µM

----------
Recorded IC50, one value per entry.
target: BRG-1 (Homo sapiens); test: ATPase catalytic activity assay (ADP-Glo), BRG-1
Sequence (P51532 whole entry): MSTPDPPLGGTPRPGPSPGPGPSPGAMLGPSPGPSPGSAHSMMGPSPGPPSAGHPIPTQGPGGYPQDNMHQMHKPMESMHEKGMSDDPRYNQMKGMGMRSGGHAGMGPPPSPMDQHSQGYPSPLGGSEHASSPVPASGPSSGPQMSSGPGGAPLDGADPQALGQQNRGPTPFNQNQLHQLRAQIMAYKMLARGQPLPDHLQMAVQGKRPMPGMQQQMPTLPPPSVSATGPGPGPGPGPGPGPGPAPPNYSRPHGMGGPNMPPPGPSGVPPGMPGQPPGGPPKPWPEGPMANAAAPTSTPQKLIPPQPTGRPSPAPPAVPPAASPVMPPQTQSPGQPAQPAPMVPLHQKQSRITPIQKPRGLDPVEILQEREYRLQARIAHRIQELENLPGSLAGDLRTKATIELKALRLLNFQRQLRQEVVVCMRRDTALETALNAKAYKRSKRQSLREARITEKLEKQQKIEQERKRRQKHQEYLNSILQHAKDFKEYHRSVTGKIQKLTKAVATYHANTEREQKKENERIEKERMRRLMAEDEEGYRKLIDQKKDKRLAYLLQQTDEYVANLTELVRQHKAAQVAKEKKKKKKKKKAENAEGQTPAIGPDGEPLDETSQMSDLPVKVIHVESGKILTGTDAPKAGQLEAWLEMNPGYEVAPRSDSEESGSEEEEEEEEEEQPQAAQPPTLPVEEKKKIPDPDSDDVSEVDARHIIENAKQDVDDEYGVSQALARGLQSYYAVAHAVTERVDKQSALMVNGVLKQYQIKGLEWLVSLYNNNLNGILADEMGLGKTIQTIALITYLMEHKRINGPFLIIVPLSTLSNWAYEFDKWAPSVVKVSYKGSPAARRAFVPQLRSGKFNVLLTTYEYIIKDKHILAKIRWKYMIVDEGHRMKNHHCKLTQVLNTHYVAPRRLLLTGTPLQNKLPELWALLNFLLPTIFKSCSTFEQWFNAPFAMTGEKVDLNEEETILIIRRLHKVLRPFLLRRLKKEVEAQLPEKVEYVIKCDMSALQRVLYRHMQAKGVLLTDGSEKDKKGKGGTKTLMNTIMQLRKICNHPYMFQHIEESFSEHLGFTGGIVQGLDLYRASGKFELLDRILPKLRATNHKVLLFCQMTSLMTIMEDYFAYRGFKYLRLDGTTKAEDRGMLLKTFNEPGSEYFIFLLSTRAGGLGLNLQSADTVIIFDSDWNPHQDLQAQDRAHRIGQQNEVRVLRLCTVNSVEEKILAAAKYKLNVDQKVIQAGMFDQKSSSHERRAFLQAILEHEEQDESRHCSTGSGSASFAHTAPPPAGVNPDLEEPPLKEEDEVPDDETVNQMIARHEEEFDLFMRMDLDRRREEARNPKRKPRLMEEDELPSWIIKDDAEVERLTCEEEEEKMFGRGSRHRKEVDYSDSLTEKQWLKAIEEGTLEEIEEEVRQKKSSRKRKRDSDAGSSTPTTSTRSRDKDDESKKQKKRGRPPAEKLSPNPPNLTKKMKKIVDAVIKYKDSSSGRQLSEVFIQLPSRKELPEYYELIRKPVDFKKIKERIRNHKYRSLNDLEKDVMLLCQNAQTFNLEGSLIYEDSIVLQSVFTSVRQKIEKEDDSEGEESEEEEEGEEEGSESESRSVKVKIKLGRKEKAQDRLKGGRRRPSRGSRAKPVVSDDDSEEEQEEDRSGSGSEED

Check out these entries, answers already filled in.
* [2H]C1([2H])OCc2ncc(C(=O)NCc3cc4nc(-c5cncc(C6CC6)n5)ccc4cn3)cc2[C@]1(C)F [Compound 222] | 0.5 to 1 µM
* C[C@@]1(C#N)COCc2ccc(C(=O)NCc3cc4nc(-c5cccc(C#N)c5)ccc4cn3)cc21 [Compound 112] | > 1 µM
* COc1nn(C)cc1-c1ccc2nnc(CNC(=O)c3ccc4c(c3)[C@](C)(F)COC4)cc2n1 [Compound 275] | 0.5 to 1 µM

Lookup: Requested read-out: IC50. Entry: Cc1cn(C)c2cccc(-c3ccc4cnc(CNC(=O)c5ccc6c(c5)[C@](C)(C#N)COC6)cc4n3)c12 [Compound 177]
Found: 0.5 to 1 µM

Lookup: Next: COc1cc(F)cc(-c2ccc3cnc(CNC(=O)c4ccc5c(c4)[C@](C)(C#N)COC5)cc3n2)c1 [Compound 101]
Found: 0.5 to 1 µM

Lookup: Note, next up: COc1c(F)cc(F)cc1-c1ccc2cnc(CNC(=O)c3ccc4c(c3)[C@](C)(C#N)COC4)cc2n1 [Compound 515]
Found: 0.5 to 1 µM

Lookup: Moving on to the next molecule: C[C@@]1(C#N)COCc2ccc(C(=O)NCc3cc(C#Cc4ccccc4)ccn3)cc21 [Compound 1]
Found: > 1 µM

Lookup: What about this molecule? C[C@@]1(C#N)COCc2ccc(C(=O)NCc3cc4nc(-c5ccnc(N6CCC6)c5)ccc4cn3)cc21 [Compound 437]
Found: 0.1 to 0.5 µM

Lookup: One more molecule: C[C@@]1(C#N)COCc2ccc(C(=O)NCc3cc4nc(-c5ccnc(C6CCOCC6)n5)ccc4cn3)cc21 [Compound 397]
Found: 0.5 to 1 µM

----------
target: BRG-1 (Homo sapiens); test: ATPase catalytic activity assay (ADP-Glo), BRG-1
pIC50: −log10 of the molar value.
Listing of recorded pIC50 by entry.

* C[C@@]1(C#N)COCc2ccc(C(=O)NCc3cc(C#Cc4cccc(C(F)F)c4)ccn3)cc21 | < 6.00

Lookup: Would you mind telling me what pIC50 value was observed for C[C@@]1(C#N)COCc2ccc(C(=O)NCc3cc([C@H]4C[C@@H](c5ccccc5)C4)ccn3)cc21 ?
Found: 6.00 to 6.30

Lookup: Also CNC(=O)c1cccc(-c2ccc3cnc(CNC(=O)c4ccc5c(c4)[C@](C)(C#N)COC5)cc3n2)c1 ?
Found: 6.00 to 6.30

----------
Catalogue of IC50 readings, one per entry.
target: BRM (Homo sapiens, UniProt P51531); test: ATPase catalytic activity assay (ADP-Glo), BRM; details: BRM ATPase: IC50 (uM), 30 nM BRM, 400 μM ATP

Some entries whose results are on file:
• C[C@@]1(C#N)COCc2ccc(C(=O)NCc3cc(OCc4ccc(C#N)cc4)ccn3)cc21 = 0.1 to 0.5 µM
• Cn1c(C(F)F)cc2c(-c3ccc4cnc(CNC(=O)c5ccc6c(c5)[C@](C)(C#N)COC6)cc4n3)cccc21 = < 0.1 µM
• C[C@@]1(C#N)COCc2ccc(C(=O)NCc3cc4nc(-c5ccc(N6CCC6)nc5)ccc4cn3)cc21 = 0.1 to 0.5 µM
• CN1Cc2nc(-c3ccc4cnc(CNC(=O)c5ccc6c(c5)[C@](C)(C#N)COC6)cc4n3)ccc2C1=O = < 0.1 µM
• C[C@@]1(C#N)COCc2ccc(C(=O)NCc3cc4cc(-c5nccc(N6CCC6)n5)cnc4cn3)cc21 = 0.1 to 0.5 µM

We next turn to a different compound, shown below.
Lookup: Sample C[C@@]1(C#N)COCc2ccc(C(=O)NCc3cc4nc(-c5cc(F)c(=O)n(C(F)F)c5)ccc4cn3)cc21 — what was its IC50?
Found: 0.1 to 0.5 µM
